# measured.target: Peroxisome proliferator-activated receptor gamma (Homo sapiens, UniProt P37231)
# Sequence (P37231 whole entry): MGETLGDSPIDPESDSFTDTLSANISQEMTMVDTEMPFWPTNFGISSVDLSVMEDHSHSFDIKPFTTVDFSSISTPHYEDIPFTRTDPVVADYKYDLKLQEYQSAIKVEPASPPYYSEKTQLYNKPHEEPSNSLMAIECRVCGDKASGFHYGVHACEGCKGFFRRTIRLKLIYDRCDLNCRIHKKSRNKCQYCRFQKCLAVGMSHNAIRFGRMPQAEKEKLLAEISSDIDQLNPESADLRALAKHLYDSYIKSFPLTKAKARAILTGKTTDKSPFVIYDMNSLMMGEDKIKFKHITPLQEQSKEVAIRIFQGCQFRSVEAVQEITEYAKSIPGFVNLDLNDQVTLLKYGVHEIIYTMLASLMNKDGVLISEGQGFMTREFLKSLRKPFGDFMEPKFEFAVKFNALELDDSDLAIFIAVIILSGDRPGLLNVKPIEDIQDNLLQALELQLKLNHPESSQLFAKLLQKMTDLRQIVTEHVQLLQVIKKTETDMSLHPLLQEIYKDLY
# test.protocol: Transactivation of PPARgamma (unknown origin)
experimental.endpoint: EC50 (nM)
Respond with the bare value in nM.

Reported EC50 for CCC(OC(=O)N(Cc1ccccc1)C(=O)Nc1cc(OC)cc(OC)c1)c1cc(-c2ccc(OC(C)(C)C(=O)O)cc2)no1 (racemic) : what is it?
3.3
